# system name: UniProt:P56159
# Sequence (P56159 25-429 limits assumed): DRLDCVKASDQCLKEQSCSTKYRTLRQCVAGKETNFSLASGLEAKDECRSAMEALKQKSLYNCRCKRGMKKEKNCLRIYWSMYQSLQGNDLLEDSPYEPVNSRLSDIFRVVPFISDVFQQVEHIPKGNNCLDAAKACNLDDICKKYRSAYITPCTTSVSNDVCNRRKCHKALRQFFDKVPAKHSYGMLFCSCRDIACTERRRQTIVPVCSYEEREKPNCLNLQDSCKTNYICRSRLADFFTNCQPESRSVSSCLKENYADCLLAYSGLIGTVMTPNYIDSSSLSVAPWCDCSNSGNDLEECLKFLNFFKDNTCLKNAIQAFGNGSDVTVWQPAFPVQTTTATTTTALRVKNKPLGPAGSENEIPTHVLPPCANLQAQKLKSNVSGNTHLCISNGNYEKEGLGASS
# test summary: Elk1 reporter-gene (luciferase) assay in cells expressing GFRα1-RET
# measurement context: MG87 murine fibroblasts stably transfected with PathDetect Elk-1, GFRα1 and RET, 6 concentrations, agonist/activator activity
List of EC50 values.
parameter measured: EC50

molecule="CN1CCc2cc(S(=O)(=O)N3CCC(c4ccccc4)CC3)cc(N3[C@@H]4CC[C@H]3CN(C(=O)c3ccc(F)cc3Cl)C4)c21 [compound 119]" system_name=UniProt:P56159 recorded_measurement="< 1000 nM"
molecule="COc1ccc(S(=O)(=O)N2CCCC2)cc1N1[C@@H]2CC[C@H]1CN(C(=O)c1ccc(F)cc1Cl)C2 [compound 004]" system_name=UniProt:P56159 recorded_measurement="1000 to 10000 nM"
molecule="CC(C)(C)NS(=O)(=O)c1cc(Cl)c(O)c(N2[C@@H]3CC[C@H]2CN(C(=O)c2ccc(F)cc2Cl)C3)c1 [compound 095]" system_name=UniProt:P56159 recorded_measurement="< 1000 nM"
molecule="CC1(NS(=O)(=O)c2cc(Cl)c(O)c(N3[C@@H]4CC[C@H]3CN(C(=O)c3ccc(F)cc3Cl)C4)c2)CCC1 [compound 102]" system_name=UniProt:P56159 recorded_measurement="< 1000 nM"
molecule="CCCN(C)S(=O)(=O)c1ccc(O)c(N2[C@@H]3CC[C@H]2CN(C(=O)c2ccc(F)cc2Cl)C3)c1 [compound 036]" system_name=UniProt:P56159 recorded_measurement="1000 to 10000 nM"
molecule="COc1ccc(S(=O)(=O)N2CCC(CCc3ccccc3)CC2)cc1N1[C@@H]2CC[C@H]1CN(C(=O)c1ccc(F)cc1Cl)C2 [compound 010]" system_name=UniProt:P56159 recorded_measurement="< 1000 nM"

Every entry's value here was drawn from patent US20260022096A1.
